Test system: OVCAR-8 ovarian
assay.name: NCI-60 one-dose screen, 48 h (100 = growth as untreated, 0 = no growth, -100 = all killed)
measurement.setup: 10 µM unless noted
Compounds without any hit were thinned out: in the full panel of roughly 83,000, 20% have a hit. Calls of active or inactive are those of the source. How the source made its calls: active means growth percent below 10; inactive means the rest.
Quick list: growth per entry.

These solved cases illustrate the format of a correct answer.
CN1C(=O)N(C)C2Nn3c(s/c(=C\c4ccccn4)c3=O)=NC21 (stereo not given)	101% (inactive)
CCNCCCn1c2c(c3cc(OC)c(OC)cc3c1=O)C(=O)c1cc(OC)cnc1-2	14.1% (inactive)
Cc1ccc(S(=O)(=O)N/N=C/c2cn(-c3ccc(F)cc3)nc2-c2ccc(S(C)(=O)=O)cc2)cc1	102% (inactive)
Cc1cc(O)c2c(c1)C(=O)C(c1c(C)cc3c(c1O)C(=O)C=CC3=O)=CC2=O	82.5% (inactive)

Then this compound:
### Prompt # return recorded growth for input CNC(=O)c1cc(Oc2ccc3nc(NC(=O)c4cccc(C(F)(F)F)c4)sc3c2)ccn1
### Response 106% (inactive)
